B1: NCK2 (parent)
chain: YVERKNSLKKGSLVKNLKDTLGLG

Variants of: B1
Test Protocol: protein stability index of a GFP-peptide fusion (GPS, HEK-293T) (PSI 1-6); higher = more stable;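 further: lentivirally expressed fusions sorted by FACS into six bins by GFP to DsRed ratio, PSI derived from sequencing read proportions per bin multiplied by bin number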
Experimental Context: c terminus: a fixed tail appended
Here, each record is paired with measured protein stability index data.
Just the number, please, no unit after it.

Worked cases, answers included:
Please fill in: protein stability index reported for `K9G` = 2.39

Please fill in: protein stability index reported for `L23D` = 2.76

Please fill in: protein stability index reported for `L13Q` = 2.64

Please fill in: protein stability index reported for `T20M` = 2

Please fill in: protein stability index reported for `K18L` = 2.08

---
Please fill in: protein stability index reported for `V14C` = 2.08
